- MEASUREMENT NOTES: qHTS assay to identify small molecule agonists of the peroxisome proliferator-activated receptor delta (PPARd) signaling pathway - cell viability counter screen (AID 743211); further: nearly all actives have a fitted effect of over 55% in size
- CONDITION LABEL: PPARd-bla HEK293H viability, CellTiter-Glo luminescence, 17 h; series mostly up to 62.6 µM
Results filed as inconclusive are left out. Activity calls are given as the source filed them. The call rests on the fitted dose curve; in most records, active means well fitted cell-killing curve with a large enough effect in the repeat runs; inconclusive means weak or mixed curves; inactive means no such curve, though single readings can be large or run the other way.
Outcomes you can answer with include only these: active, inactive

Sample answers from the record:
O=[N+]([O-])c1ccc(CCl)cc1 :: inactive
CCc1cccc(C)c1N(C(=O)CCl)[C@@H](C)COC :: inactive
ClC1(Cl)C2(Cl)C3(Cl)C4(Cl)C(Cl)(Cl)C5(Cl)C3(Cl)C1(Cl)C5(Cl)C24Cl (centres undefined) :: inactive

Challenge: Entry "O=c1c2ccccc2c(=O)c2c1cc(Cl)c1[nH]c3c([nH]c12)c(Cl)cc1c(=O)c2ccccc2c(=O)c13" : call = ?
Response given: inactive

Challenge: Entry "O=[N+]([O-])c1ccc(Cl)c(Cl)c1Cl" : call = ?
Response given: inactive

Challenge: Entry CC(C)NCC(O)c1ccccc1Cl (centres undefined) : call = ?
Response given: inactive

Challenge: Entry "COP(=S)(OC)Oc1nc(Cl)c(Cl)cc1Cl" : call = ?
Response given: inactive

Challenge: Entry "CCOC(=O)CCN(SN(C)C(=O)Oc1cccc2c1OC(C)(C)C2)C(C)C" : call = ?
Response given: inactive

Challenge: Entry CCC(C)Nc1c([N+](=O)[O-])cc(C(C)(C)C)cc1[N+](=O)[O-] (centres undefined) : call = ?
Response given: inactive

Challenge: Entry "O=NN(CCO)CCO" : call = ?
Response given: inactive

Challenge: Entry "COc1c2c(cc3c1OCO3)CCN(C)C2" : call = ?
Response given: inactive

Challenge: Entry "C=CCOC(=O)c1ccccc1N" : call = ?
Response given: inactive

----------
- MEASUREMENT NOTES: A CellTox Green Cytotoxicity Assay to monitor cytotoxicity in HepG2 cells - 16 hour (AID 1224876); further: nearly all actives have a fitted effect of over 45% in size; further: potency means the concentration at half of the fitted maximal effect
- CONDITION LABEL: CellTox Green fluorescence; series mostly up to 76.8 µM
Results filed as inconclusive are left out. Calls of active or inactive are those of the source. The call rests on the fitted dose curve; in most records, active means well fitted activation curve with a large enough effect in the repeat runs; inconclusive means weak or mixed curves; inactive means flat fitted curve, though single readings scatter.
QUANTITY: Potency

These solved cases illustrate the format of a correct answer.
CCOP(=O)(Sc1ccccc1)Sc1ccccc1 :: inactive
CN1C(=O)[C@@H](NC(=O)c2cc3ccccc3[nH]2)N=C(c2ccccc2)c2ccccc21 :: inactive
Cc1ccc([N+](=O)[O-])[c]2c1[O][Hg]2 :: 3010 nM (active)
COc1nc(C)nc(NC(=O)NS(=O)(=O)c2ccccc2Cl)n1 :: inactive
C#CCO :: inactive

// Potency value for CC(Cc1ccc(O)cc1)NCC(O)c1cc(O)cc(O)c1 (configuration not stated) : inactive

// Potency value for "CC(=O)[O-].CC(=O)[O-].CC(=O)[O-].[Cr+3]" : inactive

----------
- MEASUREMENT NOTES: qHTS assay to identify small molecule antagonists of the sonic hedgehog signaling (Shh) pathway (AID 1259369); further: nearly all actives have a fitted effect of over 45% in size
- CONDITION LABEL: NIH/3T3 Gli1-Luc reporter, Shh antagonist, luminescence 24 h; series mostly up to 92.4 µM
Results filed as inconclusive are left out. The source made the active and inactive calls. Calls follow the shape of the full dose curve.
Outcomes you can answer with include only these: 1 (active), 0 (inactive)

CCOP(=O)(Sc1ccccc1)Sc1ccccc1 :: 0

Challenge: Entry "[C-]1=CC=CC1.[Cl][Zr+2][Cl].c1cc[cH-]c1" : call = ?
Response given: 0

Challenge: Entry "CNC(C)(C)Cc1ccccc1" : call = ?
Response given: 0

Challenge: Entry "N#CCCl" : call = ?
Response given: 0

Challenge: Entry "CC(C)N(C(=O)SC/C(Cl)=C/Cl)C(C)C" : call = ?
Response given: 0

Challenge: Entry "O.O.O.O.O.O.O.O=S(=O)([O-])[O-].[Co+2]" : call = ?
Response given: 0

Challenge: Entry "Fc1ccc(C(OCCN2CCN(CCCc3ccccc3)CC2)c2ccc(F)cc2)cc1" : call = ?
Response given: 1

Challenge: Entry "Nc1nc(N)nc(Cl)n1" : call = ?
Response given: 0

Challenge: Entry "CSC1=N[C@@](C)(c2ccccc2)C(=O)N1Nc1ccccc1" : call = ?
Response given: 1
